target: Acetylcholinesterase (Homo sapiens)
Sequence (P22303 whole entry): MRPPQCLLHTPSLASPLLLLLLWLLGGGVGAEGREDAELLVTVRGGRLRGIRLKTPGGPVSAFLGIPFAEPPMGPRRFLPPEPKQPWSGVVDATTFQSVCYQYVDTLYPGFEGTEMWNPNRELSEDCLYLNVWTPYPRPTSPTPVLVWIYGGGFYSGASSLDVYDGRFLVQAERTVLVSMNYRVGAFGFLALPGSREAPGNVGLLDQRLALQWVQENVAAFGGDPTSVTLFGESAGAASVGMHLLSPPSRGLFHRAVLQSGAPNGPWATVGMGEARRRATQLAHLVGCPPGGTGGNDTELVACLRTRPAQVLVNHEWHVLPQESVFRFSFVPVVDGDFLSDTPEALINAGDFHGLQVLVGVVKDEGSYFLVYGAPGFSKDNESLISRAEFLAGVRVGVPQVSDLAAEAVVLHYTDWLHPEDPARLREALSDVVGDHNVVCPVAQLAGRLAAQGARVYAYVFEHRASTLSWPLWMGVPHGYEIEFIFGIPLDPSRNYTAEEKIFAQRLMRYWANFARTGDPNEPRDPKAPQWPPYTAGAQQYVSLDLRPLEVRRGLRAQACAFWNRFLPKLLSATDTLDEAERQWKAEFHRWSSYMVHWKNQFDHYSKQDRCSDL
experimental_endpoint: IC50 (nM)
Express the result in nM but write the number alone.

Field: example entries. Status: answers known.
Noted IC50 for `O=C(CCCc1c[nH]c2ccccc12)NCCCCCNc1c2c(nc3cc(Cl)ccc13)CCCC2` , tested on Acetylcholinesterase (Homo sapiens): 0.13

Entry `O=C(Cc1c[nH]c2ccc(Br)cc12)NCCCCCCCNc1c2c(nc3cc(Cl)ccc13)CCCC2` , Acetylcholinesterase (Homo sapiens) data, IC50 value: 0.23

// returns IC50 for `O=C(CCc1c[nH]c2ccccc12)NCCCCCCNc1c2c(nc3cc(Cl)ccc13)CCCC2` with Acetylcholinesterase (Homo sapiens); value = 0.07

Entry `O=C(CCc1c[nH]c2ccccc12)NCCCCCCCNc1c2c(nc3cc(Cl)ccc13)CCCC2` ; assay system Acetylcholinesterase (Homo sapiens); IC50 recorded at 0.02

With those in mind, consider the next molecule.
Reported Acetylcholinesterase (Homo sapiens) IC50 for item `O=C(Cc1c[nH]c2ccccc12)NCCCCCCCNc1c2c(nc3cc(Cl)ccc13)CCCC2` was 0.12
